System: Klebsiella aerogenes
Assay: Activity against Enterobacter aerogenes (ATCC 13048)
Type: functional
quantityMeasured: MIC (µg/mL)

As a guide, the following entries are already answered.
[[record]]
compound = "CC1COc2c(N3CCN(C)CC3)c(F)cc3c(=O)c(C(=O)O)cn1c23 (stereo not given) [OFLOXACIN]"
testedon = "Klebsiella aerogenes"
reportedresult = 0.1

[[record]]
compound = "CN1CCN(c2nc3c(cc2F)c(=O)c(C(=O)O)c2n3CCS2)CC1"
testedon = "Klebsiella aerogenes"
reportedresult = 0.2


[a] CC1COc2c(C(=O)O)c(=O)c3cc(F)c(N4CCN(C)CC4)nc3n21 (stereo not given)
[b] CCn1cc(C(=O)O)c(=O)c2cc(F)c(N3CCNCC3)nc21 [ENOXACIN]
[c] CN1CCN(c2nc3c(cc2F)c(=O)c(C(=O)O)c2n3CCN2C)CC1
**Q:** Give the ascending ranking of the items by reported MIC. Answer by naming the labels in the order asked.
**A:** b, a, c
